B1: HDV Ribozyme (parent)
chain: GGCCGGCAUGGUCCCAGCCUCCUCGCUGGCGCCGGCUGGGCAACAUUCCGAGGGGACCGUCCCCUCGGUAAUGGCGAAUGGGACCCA

Variants of: B1
Run description: self-cleavage, relative activity (ratio to wild type); higher = more cleavage; co-transcriptional
Could you label it Fulfilled if measured self-cleavage is 0.3 or higher, and Not fulfilled otherwise?

1. G40C U47C :: Not fulfilled
2. C44G A51G :: Fulfilled
3. C63G A87U :: Fulfilled
4. G5A G10U :: Not fulfilled
5. C3A G40C :: Not fulfilled
6. A42U C86G :: Fulfilled
7. C85G C86G :: Fulfilled
8. U20G A51U :: Fulfilled
9. C32A C49A :: Fulfilled
10. U60A G81U :: Not fulfilled
11. C22G A42U :: Not fulfilled
12. G39U G52C :: Fulfilled
13. G2C G39C :: Not fulfilled
14. U27A G34C :: Not fulfilled
15. C19A U27A :: Fulfilled
16. G40C C84A :: Not fulfilled
17. G52U A77U :: Fulfilled
18. A56U C75A :: Not fulfilled
19. C14U A43G :: Fulfilled
20. U20A U23C :: Not fulfilled
21. C15G A78G :: Not fulfilled
22. G28A C75A :: Not fulfilled
23. G10A G17A :: Fulfilled
24. U20A U60A :: Not fulfilled
25. U27C G50A :: Fulfilled
26. G59C :: Fulfilled
27. G11U C58U :: Fulfilled
28. U23G G76A :: Fulfilled
29. A16G C57G :: Fulfilled
30. G17U U72C :: Not fulfilled
31. C14A G67C :: Fulfilled
32. C18U C44U :: Not fulfilled
33. G2A C30A :: Not fulfilled
34. C14A G40U :: Not fulfilled
35. C26U G28A :: Not fulfilled
36. C48A G80U :: Not fulfilled
37. U27G G29C :: Fulfilled
38. C66U U69A :: Fulfilled
39. U20A G35C :: Not fulfilled
40. C14U G54U :: Fulfilled
41. C7A U65G :: Not fulfilled
42. U9G A77U :: Fulfilled
43. U12G G34C :: Not fulfilled
44. G31A A45G :: Fulfilled
45. C19A C36G :: Not fulfilled
46. G2A G50A :: Not fulfilled
47. A42U C64U :: Fulfilled
48. G6U G53A :: Fulfilled
49. C21A U27A :: Not fulfilled
50. G40C C44G :: Not fulfilled
51. C4A U27G :: Not fulfilled
52. U9A U60G :: Fulfilled
53. U20G C58U :: Not fulfilled
54. C30A U46C :: Not fulfilled
55. C36G C41U :: Not fulfilled
56. G35A G81A :: Not fulfilled
57. G5A C22G :: Not fulfilled
58. C61G A70U :: Fulfilled
59. G54A A87C :: Fulfilled
60. U37A A78U :: Not fulfilled
61. C19U G50U :: Not fulfilled
62. U23G G29A :: Not fulfilled
63. U65G C85U :: Fulfilled
64. C48G G81C :: Not fulfilled
65. G34C C85A :: Not fulfilled
66. U12G G17C :: Not fulfilled
67. C36A C85U :: Not fulfilled
68. G38U G55C :: Not fulfilled
69. G2C C57G :: Not fulfilled
70. C19A G73A :: Not fulfilled
71. G10U C63G :: Fulfilled
72. U46G G59C :: Fulfilled
73. U46C C57A :: Fulfilled
74. A77C G82C :: Not fulfilled
75. G76A G81U :: Fulfilled
76. C64G U79G :: Fulfilled
77. A16U G67U :: Fulfilled
78. U27C C75G :: Not fulfilled
79. G38C G82U :: Not fulfilled
80. G1A G54C :: Fulfilled
81. C49U A83G :: Fulfilled
82. G68U A83G :: Fulfilled
83. G67C A87G :: Fulfilled
84. G28A A87G :: Not fulfilled
85. C48G A78G :: Fulfilled
